Cited source for all entries: patent US5631394A

# GI50 annotations
- Test system: C3H10T1/2 cells
- TEST PROTOCOL: sulforhodamine B cytotoxicity assay, 72 hour drug exposure, C3H10T1/2
- Type: cell-based
- TEST CONTEXT: Mus musculus, C3H 10T1/2
ENDPOINT LABEL: GI50

[[record]]
molecule = "CCCCCCCCCCCCC/C=C/[C@@H](OC(=O)CCC)[C@H](CO[Si](C)(C)C(C)(C)C)NC(=O)CCCCC [1-TBDMS-3-Butyrate C6-Cer, 1-TBDMS,3-butyrate, C6-Cer]"
result = "> 200 µM"

[[record]]
molecule = "CCCCCCCCCCCCC/C=C/[C@@H](O[Si](C)(C)C(C)(C)C)[C@H](CO)NC(=O)CCCCC [3-TBDMS C6-Ceramide, 3-TBDMS C6-Cer]"
result = "> 200 µM"

[[record]]
molecule = "CCCCCCCCCCCCC/C=C/[C@@H](O)[C@H](CO)NC(=O)CCCCC [C6-Ceramide, C6-ceramide, reference compound]"
result = "14 µM"

[[record]]
molecule = "CCCCCCCCCCCCC/C=C/[C@@H](O)[C@H](CO[Si](C)(C)C(C)(C)C)NC(=O)CCCCC [1-TBDMS C6-Ceramide, 1-TBDMS C6-Cer]"
result = "> 161 µM"

